Molecular target: GST-Ap-NF-kB RHD (Exaiptasia pallida (Aiptasia), UniProt A0A913YAJ5 2-422)
Sequence: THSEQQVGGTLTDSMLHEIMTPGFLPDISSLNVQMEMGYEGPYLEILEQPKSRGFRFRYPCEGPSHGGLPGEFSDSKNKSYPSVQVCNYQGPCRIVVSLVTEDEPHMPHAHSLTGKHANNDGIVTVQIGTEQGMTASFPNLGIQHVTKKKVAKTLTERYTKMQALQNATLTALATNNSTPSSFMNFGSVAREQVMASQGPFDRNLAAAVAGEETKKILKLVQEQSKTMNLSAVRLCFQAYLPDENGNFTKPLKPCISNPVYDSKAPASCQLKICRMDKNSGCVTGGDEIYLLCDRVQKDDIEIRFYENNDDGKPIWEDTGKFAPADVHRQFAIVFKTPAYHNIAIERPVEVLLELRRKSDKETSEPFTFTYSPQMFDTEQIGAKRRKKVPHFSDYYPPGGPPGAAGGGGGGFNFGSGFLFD
Assay: protein-binding microarray (PBM); PBM: ~300 nM protein, 6 mM HEPES pH 7.8, 80 mM KCl, 0.5 mM EDTA, 0.5 mM EGTA, 6% glycerol, 35 ng/ul poly-dIdC, 1% milk, 1 h, room temperature; Ap Aiptasia and Nv Nematostella (sea anemones) / Co Capsaspora / Aq Amphimedon (sponge) / Dm Drosophila / Hu human; RHD is the Rel homology domain; high values mean tight binding
Conditions: dsDNA, one strand shown
Exercise: for every item that follows, state its recorded binding signal.
Numbers only, in z-score.

Example sequences with recorded binding signal:
{"columns": ["seq_text", "value_unit", "binding signal"],
 "data": [
  ["CCGATTAACATCACGGGATTTCCTGATGTTAATCGGGTCTTGATTCGCTTGACGCTGCTG", "z-score", 4.81],
  ["CCGATTAACATCAGAGAAGTCCCTGATGTTAATCGGGTCTTGATTCGCTTGACGCTGCTG", "z-score", 5.7],
  ["CCGATTAACATCAAAAATCTCCCTGATGTTAATCGGGTCTTGATTCGCTTGACGCTGCTG", "z-score", 3.7],
  ["CCGATTAACATCAAAAATCCCAGTGATGTTAATCGGGTCTTGATTCGCTTGACGCTGCTG", "z-score", 3.43]
]}

Please go through the list and note binding signal for each sequence.
1. CCGATTAACATCAGAAAGTCCCATGATGTTAATCGGGTCTTGATTCGCTTGACGCTGCTG
2. CCGATTAACATCAGGATGCCCCCTGATGTTAATCGGGTCTTGATTCGCTTGACGCTGCTG
3. CCGATTAACATCACTAAATCCCCTGATGTTAATCGGGTCTTGATTCGCTTGACGCTGCTG
4. CCGATTAACATCAGGGGCTTCACTGATGTTAATCGGGTCTTGATTCGCTTGACGCTGCTG

1: 5.73; 2: 4.93; 3: 6.91; 4: 3.16

Looking up CCGATTAACATCACGGGACTCCCTGATGTTAATCGGGTCTTGATTCGCTTGACGCTGCTG , I found its binding signal recorded as 5.53

Attribution: paper PMC5700166
